# tested-system: CYP2B6 (Homo sapiens, UniProt P20813)
# Sequence (P20813 whole entry): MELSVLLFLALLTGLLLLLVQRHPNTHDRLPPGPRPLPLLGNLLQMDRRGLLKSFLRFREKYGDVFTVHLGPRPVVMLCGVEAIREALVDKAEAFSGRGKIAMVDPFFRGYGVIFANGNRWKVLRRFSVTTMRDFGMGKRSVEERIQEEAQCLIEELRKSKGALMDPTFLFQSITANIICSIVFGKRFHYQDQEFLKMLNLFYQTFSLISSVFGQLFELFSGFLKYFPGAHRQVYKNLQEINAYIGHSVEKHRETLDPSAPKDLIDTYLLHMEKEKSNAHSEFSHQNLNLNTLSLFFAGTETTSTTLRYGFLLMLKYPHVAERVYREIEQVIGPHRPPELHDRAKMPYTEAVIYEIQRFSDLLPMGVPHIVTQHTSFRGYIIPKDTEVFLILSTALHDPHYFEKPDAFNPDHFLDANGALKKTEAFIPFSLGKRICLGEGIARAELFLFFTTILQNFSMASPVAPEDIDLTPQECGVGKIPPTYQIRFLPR
pIC50: −log10 of the molar value.
quantity: pIC50

INSERT INTO measurements (compound, readout_value) VALUES
  ('C=CC(=O)N[C@H]1CCC[C@H]1NC(=O)c1sc2nccc3c2c1NC(=O)N3c1cnc(CC(C)C)cc1C (atropisomer, axis not shown)', '< 4.30');

* * *

# assay-info: Metabolic stability in hepatocytes
# Type: in vitro ADME
# condition-description: rat
quantity: hepatocyte CLint (µL/min/1e6 cells)

INSERT INTO assay_data (molecule, unit, readout_value) VALUES
  ('C=CC(=O)N[C@H]1CCC[C@H]1NC(=O)c1sc2nccc3c2c1NC(=O)N3c1cnc(CC(C)C)cc1C (atropisomer, axis not shown) [compound of Formula (III)]', 'µL/min/1e6 cells', 52.3);

* * *

# assay-info: Metabolic stability in liver microsomes
# Assay type: in vitro ADME, rat
# condition-description: rat, liver microsomes; read-out: T1/2, liver microsomes
quantity: half-life (min)

INSERT INTO measurements (compound, unit, readout_value) VALUES
  ('C=CC(=O)N[C@H]1CCC[C@H]1NC(=O)c1sc2nccc3c2c1NC(=O)N3c1cnc(CC(C)C)cc1C (atropisomer, axis not shown)', 'min', 12.9);

* * *

# assay-info: Phase 1 first-in-human study, plasma pharmacokinetics
# Format: in vivo
# condition-description: male, human, plasma, po, 4 mg, single 4 mg oral solution, male fasted
quantity: AUC(0-inf) (ng·h/mL)

INSERT INTO measurements (compound, readout_value) VALUES
  ('C=CC(=O)N[C@H]1CCC[C@H]1NC(=O)c1sc2nccc3c2c1NC(=O)N3c1cnc(CC(C)C)cc1C (atropisomer, axis not shown)', 155);

* * *

# tested-system: CYP2C19 (Homo sapiens, UniProt P33261)
# Construct: with specific CYP probe substrates in human liver microsomes; from tissue; host or cells: human liver microsomes
# Sequence (P33261 whole entry): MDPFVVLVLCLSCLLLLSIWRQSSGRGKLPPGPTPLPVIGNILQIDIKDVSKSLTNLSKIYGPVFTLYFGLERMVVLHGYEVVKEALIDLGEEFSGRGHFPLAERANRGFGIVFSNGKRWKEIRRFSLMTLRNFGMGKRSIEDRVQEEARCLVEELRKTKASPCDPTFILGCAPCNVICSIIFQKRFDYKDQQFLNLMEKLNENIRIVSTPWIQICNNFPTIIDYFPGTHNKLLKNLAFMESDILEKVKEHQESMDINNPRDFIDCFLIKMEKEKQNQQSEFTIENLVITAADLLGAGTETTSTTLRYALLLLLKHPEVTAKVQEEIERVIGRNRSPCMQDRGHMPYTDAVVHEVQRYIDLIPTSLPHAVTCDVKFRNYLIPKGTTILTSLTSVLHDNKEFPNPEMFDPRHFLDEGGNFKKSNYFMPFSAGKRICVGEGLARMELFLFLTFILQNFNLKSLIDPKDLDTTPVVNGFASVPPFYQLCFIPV
# assay-info: CYP inhibition in human liver microsomes
# Type: in vitro ADME
# condition-description: probe S-Mephenytoin
pIC50: −log10 of the molar value.
quantity: pIC50

INSERT INTO assay_data (molecule, readout_value) VALUES
  ('C=CC(=O)N[C@H]1CCC[C@H]1NC(=O)c1sc2nccc3c2c1NC(=O)N3c1cnc(CC(C)C)cc1C (atropisomer, axis not shown)', '< 4.30');

* * *

# assay-info: Phase 1 first-in-human study, plasma pharmacokinetics
# Type: in vivo
# condition-description: female, human, plasma, po, 36 mg, single 36 mg oral solution, female fasted; read-out: tmax, median (min-max)
quantity: Tmax (h)

INSERT INTO measurements (compound, quantity, readout_value) VALUES
  ('C=CC(=O)N[C@H]1CCC[C@H]1NC(=O)c1sc2nccc3c2c1NC(=O)N3c1cnc(CC(C)C)cc1C (atropisomer, axis not shown)', 'Tmax', 1);

* * *

# assay-info: Metabolic stability in hepatocytes
# Assay type: in vitro ADME
# condition-description: dog, read-out: T1/2, hepatocytes
# Description: Additional Data on Preclinical PK Profile—Protein binding of the compound of Formula (III) was studied using an equilibrium dialysis method in plasma from human, cynomolgus monkey, beagle dog, Sprague Dawley rat, CD-1 mouse, and guinea pig at 0.25, 2.5, and 25 μM. […] In human and monkey, the plasma protein binding was concentration dependent. […]
quantity: half-life

INSERT INTO results (compound, quantity, readout_value) VALUES
  ('C=CC(=O)N[C@H]1CCC[C@H]1NC(=O)c1sc2nccc3c2c1NC(=O)N3c1cnc(CC(C)C)cc1C (atropisomer, axis not shown)', 'half-life', '4.62 h');

* * *

# assay-info: Phase 1 first-in-human study, plasma pharmacokinetics
# Type: in vivo
# condition-description: male, human, plasma, po, 36 mg, single 36 mg oral solution, male fasted; read-out: AUC0-24 h
quantity: AUC(0-t) (ng·h/mL)

INSERT INTO results (compound, quantity, unit, readout_value) VALUES
  ('C=CC(=O)N[C@H]1CCC[C@H]1NC(=O)c1sc2nccc3c2c1NC(=O)N3c1cnc(CC(C)C)cc1C (atropisomer, axis not shown)', 'AUC(0-t)', 'ng·h/mL', 649);

* * *

# assay-info: Liver microsomal binding
# Format: in vitro ADME
# condition-description: dog, liver microsomes, 1.0 mg/mL, read-out: % Free in liver microsomes
quantity: fraction unbound at 1 μM

INSERT INTO assay_data (compound, readout_value) VALUES
  ('C=CC(=O)N[C@H]1CCC[C@H]1NC(=O)c1sc2nccc3c2c1NC(=O)N3c1cnc(CC(C)C)cc1C (atropisomer, axis not shown)', 0.694);

* * *

# assay-info: Phase 1 first-in-human study, plasma pharmacokinetics
# Format: in vivo
# condition-description: both sexes, human, plasma, po, 200 mg, 200 mg QD oral solution, fed, Day 10
# Procedure: Safety, tolerability, PK, and BTKO were assessed for six doses of compound of Formula (III) oral solution (4, 12, 36, 100, 200, 400 mg) in participants under fasted conditions. The SAD part comprised 10 cohorts of 8 participants each (FIG. 1). […] Safety, tolerability, and PK of a solid dose formulation of compound of Formula (III) were assessed in an additional male cohort (Cohort 10) that received 3×35 mg (105 mg) of compound of Formula (III) in the fasted state. […]
quantity: Cmax

INSERT INTO assay_data (molecule, readout_value) VALUES
  ('C=CC(=O)N[C@H]1CCC[C@H]1NC(=O)c1sc2nccc3c2c1NC(=O)N3c1cnc(CC(C)C)cc1C (atropisomer, axis not shown)', '839 ng/mL');

* * *

# assay-info: Phase 1 first-in-human study, plasma pharmacokinetics
# Type: in vivo
# condition-description: both sexes, human, plasma, po, 36 mg, 36 mg QD oral solution, fed, Day 10
quantity: Cmax (ng/mL)

INSERT INTO measurements (compound, readout_value) VALUES
  ('C=CC(=O)N[C@H]1CCC[C@H]1NC(=O)c1sc2nccc3c2c1NC(=O)N3c1cnc(CC(C)C)cc1C (atropisomer, axis not shown) [compound of Formula (III)]', 199);

* * *

# assay-info: Preclinical PK, oral and IV
# condition-description: dog, in vivo; oral
quantity: Tmax (min)

INSERT INTO assay_data (compound, unit, readout_value) VALUES
  ('C=CC(=O)N[C@H]1CCC[C@H]1NC(=O)c1sc2nccc3c2c1NC(=O)N3c1cnc(CC(C)C)cc1C (atropisomer, axis not shown)', 'min', 48);

* * *

# tested-system: UniProtKB P07550
# Sequence (P07550 whole entry, species assumed): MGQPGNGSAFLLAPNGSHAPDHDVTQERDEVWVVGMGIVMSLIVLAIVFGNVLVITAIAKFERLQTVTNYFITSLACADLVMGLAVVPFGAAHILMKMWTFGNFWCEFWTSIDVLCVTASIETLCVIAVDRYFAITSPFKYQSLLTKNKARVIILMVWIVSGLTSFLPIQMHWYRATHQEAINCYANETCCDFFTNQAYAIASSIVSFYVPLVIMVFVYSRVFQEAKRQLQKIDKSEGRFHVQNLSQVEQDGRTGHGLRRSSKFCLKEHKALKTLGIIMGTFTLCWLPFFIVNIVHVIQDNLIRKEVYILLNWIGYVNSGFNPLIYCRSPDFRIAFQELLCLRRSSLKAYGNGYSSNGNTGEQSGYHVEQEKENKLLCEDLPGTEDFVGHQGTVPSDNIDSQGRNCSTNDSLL
quantity: IC50

INSERT INTO results (compound, readout_value) VALUES
  ('C=CC(=O)N[C@H]1CCC[C@H]1NC(=O)c1sc2nccc3c2c1NC(=O)N3c1cnc(CC(C)C)cc1C (atropisomer, axis not shown) [compound of Formula (III)]', '> 12.5 µM');

* * *

# assay-info: Phase 1 first-in-human study, plasma pharmacokinetics
# Assay type: in vivo
# condition-description: male, human, plasma, po, 100 mg, single 100 mg oral solution, male fasted
# Procedure: Safety, tolerability, PK, and BTKO were assessed for six doses of compound of Formula (III) oral solution (4, 12, 36, 100, 200, 400 mg) in participants under fasted conditions. The SAD part comprised 10 cohorts of 8 participants each (FIG. 1). […] Safety, tolerability, and PK of a solid dose formulation of compound of Formula (III) were assessed in an additional male cohort (Cohort 10) that received 3×35 mg (105 mg) of compound of Formula (III) in the fasted state. […]
quantity: Cmax (ng/mL)

INSERT INTO assay_data (compound, readout_value) VALUES
  ('C=CC(=O)N[C@H]1CCC[C@H]1NC(=O)c1sc2nccc3c2c1NC(=O)N3c1cnc(CC(C)C)cc1C (atropisomer, axis not shown)', 923);

* * *

# assay-info: Preclinical PK, oral and IV
# Assay type: in vivo, rat
# condition-description: rat, in vivo, po, 5 mg/kg, 5 mg/kg solution PO (20% HPβCD)
quantity: Cmax

INSERT INTO results (compound, quantity, readout_value) VALUES
  ('C=CC(=O)N[C@H]1CCC[C@H]1NC(=O)c1sc2nccc3c2c1NC(=O)N3c1cnc(CC(C)C)cc1C (atropisomer, axis not shown)', 'Cmax', '189 ng/mL');

* * *

# assay-info: Phase 1 first-in-human study, plasma pharmacokinetics
# Format: in vivo
# condition-description: both sexes, human, plasma, po, 100 mg, 100 mg QD oral solution, fed, Day 10; read-out: tmax, median (min-max)
quantity: Tmax (h)

INSERT INTO measurements (compound, readout_value) VALUES
  ('C=CC(=O)N[C@H]1CCC[C@H]1NC(=O)c1sc2nccc3c2c1NC(=O)N3c1cnc(CC(C)C)cc1C (atropisomer, axis not shown)', 1.53);

* * *

# tested-system: CYP2C9 (Homo sapiens, UniProt P11712)
# Construct: with specific CYP probe substrates in human liver microsomes; from tissue; host or cells: human liver microsomes
# Sequence (P11712 whole entry): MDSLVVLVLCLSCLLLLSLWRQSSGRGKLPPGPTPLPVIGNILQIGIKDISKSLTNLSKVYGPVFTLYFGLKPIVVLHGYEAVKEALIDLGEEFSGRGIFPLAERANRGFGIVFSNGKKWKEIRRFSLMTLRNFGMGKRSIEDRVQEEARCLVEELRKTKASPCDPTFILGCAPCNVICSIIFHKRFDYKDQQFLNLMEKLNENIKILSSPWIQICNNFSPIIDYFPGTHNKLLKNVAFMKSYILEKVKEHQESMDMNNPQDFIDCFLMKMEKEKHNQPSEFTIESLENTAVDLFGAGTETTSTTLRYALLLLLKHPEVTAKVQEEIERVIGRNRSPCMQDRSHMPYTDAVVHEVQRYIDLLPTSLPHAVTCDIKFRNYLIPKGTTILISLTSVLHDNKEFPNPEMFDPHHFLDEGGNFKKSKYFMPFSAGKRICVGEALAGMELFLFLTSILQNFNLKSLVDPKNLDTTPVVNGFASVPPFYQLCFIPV
# assay-info: CYP inhibition in human liver microsomes
# Assay type: in vitro ADME
# condition-description: probe Tolbutamide
pIC50: −log10 of the molar value.
quantity: pIC50

INSERT INTO results (molecule, readout_value) VALUES
  ('C=CC(=O)N[C@H]1CCC[C@H]1NC(=O)c1sc2nccc3c2c1NC(=O)N3c1cnc(CC(C)C)cc1C (atropisomer, axis not shown) [compound of Formula (III)]', 5.28);
